- targetOrSystem: WEE1 (Homo sapiens, UniProt P30291+Q96SW2)
- Construct: C-terminal ePL-tagged (DiscoverX, Fremont, CA) full-length WEE1 expression construct; expressed in transfected cells; host or cells: LentiX-HEK293T (Invitrogen), lentivirally transduced; the cells also over-express GSPT1-GN
- Sequence (P30291 whole entry): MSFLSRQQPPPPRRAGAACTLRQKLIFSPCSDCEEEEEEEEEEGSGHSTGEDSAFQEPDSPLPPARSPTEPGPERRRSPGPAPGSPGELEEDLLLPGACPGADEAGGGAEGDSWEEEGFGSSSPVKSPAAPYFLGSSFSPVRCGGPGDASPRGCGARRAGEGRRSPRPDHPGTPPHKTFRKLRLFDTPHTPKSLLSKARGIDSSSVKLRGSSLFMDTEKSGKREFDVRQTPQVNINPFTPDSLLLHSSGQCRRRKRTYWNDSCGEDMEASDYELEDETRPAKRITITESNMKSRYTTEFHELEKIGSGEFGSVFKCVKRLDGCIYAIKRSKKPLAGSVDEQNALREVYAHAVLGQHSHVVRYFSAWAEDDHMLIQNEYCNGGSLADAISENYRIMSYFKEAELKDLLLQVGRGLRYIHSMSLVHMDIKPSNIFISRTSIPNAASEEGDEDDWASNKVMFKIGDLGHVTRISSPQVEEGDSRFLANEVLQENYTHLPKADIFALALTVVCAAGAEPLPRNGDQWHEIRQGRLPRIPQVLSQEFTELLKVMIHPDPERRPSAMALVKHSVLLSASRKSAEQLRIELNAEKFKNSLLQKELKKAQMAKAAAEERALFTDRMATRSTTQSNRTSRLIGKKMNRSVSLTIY
- Sequence (Q96SW2 whole entry): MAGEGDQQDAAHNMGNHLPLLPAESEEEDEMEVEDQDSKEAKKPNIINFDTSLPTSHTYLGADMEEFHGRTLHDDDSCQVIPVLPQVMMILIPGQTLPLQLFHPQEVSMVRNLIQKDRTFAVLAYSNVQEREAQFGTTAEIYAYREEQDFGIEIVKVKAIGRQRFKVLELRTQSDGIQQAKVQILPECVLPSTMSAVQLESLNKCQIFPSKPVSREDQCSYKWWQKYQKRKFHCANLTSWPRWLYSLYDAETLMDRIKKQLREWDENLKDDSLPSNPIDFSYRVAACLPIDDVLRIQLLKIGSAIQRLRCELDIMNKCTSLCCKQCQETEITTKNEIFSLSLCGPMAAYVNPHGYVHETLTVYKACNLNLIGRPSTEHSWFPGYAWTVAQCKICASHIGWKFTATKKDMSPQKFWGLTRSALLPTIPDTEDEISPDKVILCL
- Sequence (Q16531 whole entry partner): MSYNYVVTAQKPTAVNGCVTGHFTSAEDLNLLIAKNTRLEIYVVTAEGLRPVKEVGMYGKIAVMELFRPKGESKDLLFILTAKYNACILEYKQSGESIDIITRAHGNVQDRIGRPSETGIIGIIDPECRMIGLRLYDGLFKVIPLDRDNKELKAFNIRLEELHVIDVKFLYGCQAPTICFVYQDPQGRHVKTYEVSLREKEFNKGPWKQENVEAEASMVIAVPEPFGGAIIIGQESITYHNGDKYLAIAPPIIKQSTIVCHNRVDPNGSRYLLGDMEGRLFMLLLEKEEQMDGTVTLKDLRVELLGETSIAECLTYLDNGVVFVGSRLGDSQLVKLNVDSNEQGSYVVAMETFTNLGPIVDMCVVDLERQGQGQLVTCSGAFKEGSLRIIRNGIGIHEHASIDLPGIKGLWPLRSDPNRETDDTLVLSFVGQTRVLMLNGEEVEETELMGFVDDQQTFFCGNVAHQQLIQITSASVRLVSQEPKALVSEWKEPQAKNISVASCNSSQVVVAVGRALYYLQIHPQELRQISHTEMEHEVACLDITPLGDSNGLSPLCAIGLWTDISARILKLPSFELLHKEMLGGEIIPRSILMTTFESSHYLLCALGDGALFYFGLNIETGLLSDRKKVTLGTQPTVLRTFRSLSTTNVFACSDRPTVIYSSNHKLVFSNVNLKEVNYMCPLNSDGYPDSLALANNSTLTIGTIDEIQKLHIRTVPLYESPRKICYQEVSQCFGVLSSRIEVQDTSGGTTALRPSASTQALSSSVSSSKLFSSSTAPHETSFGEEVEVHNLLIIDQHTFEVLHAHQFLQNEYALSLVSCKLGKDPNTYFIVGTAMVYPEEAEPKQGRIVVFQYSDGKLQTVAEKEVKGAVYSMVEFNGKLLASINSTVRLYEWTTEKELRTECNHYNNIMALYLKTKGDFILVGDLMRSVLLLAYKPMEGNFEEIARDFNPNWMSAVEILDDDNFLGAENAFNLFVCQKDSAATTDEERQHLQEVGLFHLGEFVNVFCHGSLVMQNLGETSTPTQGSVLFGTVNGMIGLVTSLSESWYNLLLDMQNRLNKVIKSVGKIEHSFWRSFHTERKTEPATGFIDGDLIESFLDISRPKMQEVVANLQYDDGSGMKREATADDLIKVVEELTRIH
- assay: WEE1-ePL degradation assay (293T-LentiX, InCELL Hunter luminescence, 4 hr)
- Format: cell-based
- experimentalContext: LentiX-HEK293T cells expressing WEE1-ePL, 4 hr incubation; read-out: 293T-LentiX WEE1-ePL Degradation 4 hr EC50
propertyMeasured: DC50 (nM)

1) COC[C@@H]1CN(Cc2cc(F)c3nc(C4CN(CC(F)(F)F)C4)ncc3c2)C[C@H]1Oc1ccc2c(c1)CN([C@H]1CCC(=O)NC1=O)C2=O	4
2) COC[C@@H]1CN(Cc2cc3ccc(C4CCOCC4)nc3cn2)C[C@H]1Oc1ccc2c(c1)CN([C@H]1CCC(=O)NC1=O)C2=O	1

[I] COC[C@@H]1CN(Cc2cnc3nc(C4CCOCC4)ncc3c2)C[C@H]1Oc1ccc2c(c1)CN([C@H]1CCC(=O)NC1=O)C2=O
[II] COC[C@@H]1CN(Cc2cc(F)c3nc(C4CC(C)OC(C)C4)ccc3c2)C[C@H]1Oc1ccc2c(c1)CN([C@H]1CCC(=O)NC1=O)C2=O (relative stereo)
[III] COC[C@@H]1CN(Cc2cc(F)c3nc(N4CCC(O)CC4)ncc3c2)C[C@H]1Oc1ccc2c(c1)CN([C@H]1CCC(=O)NC1=O)C2=O
[IV] COC[C@@H]1CN(Cc2cc(F)c3nc(COC4CCOCC4)ncc3c2)C[C@H]1Oc1ccc2c(c1)CN([C@H]1CCC(=O)NC1=O)C2=O
-- ask Please give the order of these molecules when sorted by DC50, largest value leading. Please list each label once, in the requested order.
-- reply I, IV, III, II
(I: 37 nM, IV: 8 nM, III: 3 nM, II: 1 nM)

Cited source: patent US20250197374A1
